# Test system: K4 kissing-loop RNA reporter;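 note: bound reporter read as fluorescence of individual clusters on recovered sequencing chips by microscopy, with normalized cluster intensities fitted with a binding model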
# Experiment notes: apparent KD of K4 kissing-loop reporter; higher = weaker reporter binding
# Condition details: Eterna round: R107; input ligand: FMN 200 uM
Observation type: apparent KD of K4 kissing-loop reporter (nM)
Number in nM, nothing else.

The following sequences have reported results that may help.
GUAUCGCUAGGAGGAUAUUUCAAUUCGCCUAUAAUAGGUGAUACGGAGUGAUGUUCCGAUUUACGGAAAGAAGGCCUAGUGAUAC [FMN B 10] : 144
UGUACCGAGGCAGGAUAUGUCGUCGAAAGACGAAAUGGAGUGAUGUUCCUUAAACUGCGAAAGCAGACAGAAGGGUCUUGGUACU [FmnBS 29 G10+U76] : 132
AAAAUAAACCAGUGAUGUUGGUAGCCAGAUACCAGCGACGAAAGUCGCCCUUGGCAGCUGUGGACGUACAAAAUAAGUACGUCCU : 248
AAAAUAAACCAGUGAUGUUGGUGUCUGGAUACCAGCGACGAAAGUCGCCCUUGGCAGCUACGGACGUACAAAAUAAGUACGUCCU [MatMod 8 - Jieux - Same State - Theophylline A] : 709

Measured apparent KD of K4 kissing-loop reporter, UAGUGUCGCGCAGGAUAUACUGAUUGGAGUGAUGUUCCAAACAUGAACGUGAGACUUUUACAAGAAGUAGAAGGGCGUGAGACAU [Exclusion FMN B GF 21] : 276

Recorded apparent KD of K4 kissing-loop reporter (sequence AAAAUAAGCCAGUGAUGUUGGUAGCCAGAUACCAGCGACGAAAGUCGCCCUUGGCAGCUGUGGACGUACAAAAUAAGUACGUCCU ): 1010

The reported apparent KD of K4 kissing-loop reporter of the sequence UGUCAUUGGUCGGCCGCCACUUCAUGUAGAGUGAUGUUCUGUAAGACGGAUCGAAAGAUCUGUCGAAGGACCGGGACCGAUGACU [FiskerMod 13 - Jieux - Same State - Tryptophan B] was 1090

The recorded apparent KD of K4 kissing-loop reporter for GUGCAGUGAUGUUGCACGAGGAAAGACGAUACCAGCCGCAAAUGUGGCCCUUGGCAGCGUGGGCUAGCACAAAAUAUGCUAGUCU [Ricegeusat] is 131

Quick note, apparent KD of K4 kissing-loop reporter for AGUGAUGUGGGAAGGAGCGCUAGUACACUUCAGUGAUGUUGAAGUGAUGAAUUAGUGUAUUGGCAGGUAGGUCGCCUAGAUGUUA [KL-XARG-B14] landed at 97.4

// data source = the supplement of paper PMC9170038
